system: PBMC; assay: Antiinflammatory activity in human PBMC assessed as inhibition of LPS-induced TNF-alpha production after 16 hrs by AlphaLisa assay; format: functional, cell-based
Calls of active or inactive are those of the source. The calls are words filed in the database; no cut-off is given here.
propertyName: inhibition

| compoundString | targetOrTestSystem | propertyName | observedValue |
| --- | --- | --- | --- |
| CC1=C2[C@H](/C=C(\C)C(=O)NCCC(C)C)CC[C@@H](C)[C@H]2CC1 | PBMC | inhibition | inactive |
| CC1=C2[C@H](/C=C(\C)C(=O)NCc3cccc(F)c3)CC[C@@H](C)[C@H]2CC1 | PBMC | inhibition | inactive |
| CC1=C2[C@H](/C=C(\C)C(=O)NCCc3ccc(F)cc3)CC[C@@H](C)[C@H]2CC1 | PBMC | inhibition | inactive |
